- Tested target: human mAChR M4 (Homo sapiens, UniProt P08173)
- Sequence (P08173 1-479): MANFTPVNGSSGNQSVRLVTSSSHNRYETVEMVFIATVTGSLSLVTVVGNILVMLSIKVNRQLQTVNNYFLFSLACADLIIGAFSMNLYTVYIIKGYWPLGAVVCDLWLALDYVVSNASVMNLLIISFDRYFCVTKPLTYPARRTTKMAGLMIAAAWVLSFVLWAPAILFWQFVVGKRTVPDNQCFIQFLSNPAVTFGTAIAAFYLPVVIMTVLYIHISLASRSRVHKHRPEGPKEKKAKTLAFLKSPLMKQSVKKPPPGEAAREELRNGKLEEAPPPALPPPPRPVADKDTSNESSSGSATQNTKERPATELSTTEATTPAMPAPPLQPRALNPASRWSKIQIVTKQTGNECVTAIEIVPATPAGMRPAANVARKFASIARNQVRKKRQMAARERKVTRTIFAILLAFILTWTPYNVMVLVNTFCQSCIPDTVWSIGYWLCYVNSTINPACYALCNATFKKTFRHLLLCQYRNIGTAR
- Test summary: mAChR M4 cell-based functional assay: calcium mobilization (Fluo-4, FDSS), potentiation of EC20 acetylcholine response in hM4-Gqi5 CHO-K1 cells
- Study conditions: potentiation of EC20 acetylcholine response, calcium mobilization, human M4
Endpoint label: EC50 (µM)
Numbers only, in µM.

// known answers, use as guide
Ask: Reported EC50 for "COCc1cc(=O)n2nc(N3CCc4ncc(-c5cc(F)ncc5C)cc4C3)c(C)cc2n1" : what is it?
Result: 0.484

Ask: Next compound up: "Cc1c(N2CCc3ncc(-c4ccc(N5CCOCC5)nc4)cc3C2)nn2c(=O)ccnc2c1C"
Result: 0.19

Ask: Continue with Cc1c(N2CCc3ncc(-c4cnn(C5CCCCO5)c4)cc3C2)nn2c(=O)ccnc2c1C (stereo not shown)
Result: 0.511

Ask: // same read-out, input: "Cc1cc(=O)n2nc(N3CCc4ncc(C(F)(F)F)cc4C3)c(C)cc2n1"
Result: 0.34

Ask: Same thing, different compound: "COCc1cc(=O)n2nc(N3CCc4ncc(-c5ccccc5F)cc4C3)c(C)cc2n1"
Result: 0.245

Ask: Same thing, different compound: "COCc1cc(=O)n2nc(N3CCc4ncc(C(F)(F)F)cc4C3)c(C)cc2n1"
Result: 0.503

Ask: Ok, now "Cc1c(N2CCc3ncc(-c4cnn(C(F)F)c4)cc3C2)nn2c(=O)cc(C(F)F)nc2c1C"
Result: 0.114

Ask: How about "Cc1c(N2CCc3ncc(-c4ccc(C5CC5)nc4)cc3C2)nn2c(=O)cc(C(F)F)nc2c1C" ?
Result: 0.122

The following compounds each have a reported value; give each one's EC50.
1. Cc1c(N2CCc3ncc(-c4ccccc4C(F)(F)F)cc3C2)nn2c(=O)ccnc2c1C
2. Cc1cc(=O)n2nc(N3CCc4ncc(-c5cnccn5)cc4C3)c(C)c(C)c2n1
3. Cc1cc2nc(C(=O)N3CCC(c4cccnc4)C3)cc(=O)n2nc1N1CCc2ncc(C(F)(F)F)cc2C1 (stereo not shown)
4. Cc1cc2nccc(=O)n2nc1N1CCc2ncc(NCc3cscn3)cc2C1

Result:
0.621
0.368
0.612
0.508

Please give EC50 for each item listed below.
1. Cc1c(N2CCc3ncc(-c4cnccn4)cc3C2)nn2c(=O)cc(C(F)F)nc2c1C
2. Cc1cc2nccc(=O)n2nc1N1CCc2ncc(Nc3cccc(F)c3C)cc2C1
3. Cc1c(N2CCc3ncc(-c4cc(F)ccc4F)cc3C2)nn2c(=O)ccnc2c1C
4. Cc1cc2nccc(=O)n2nc1N1CCc2ncc(-c3ccccc3C(F)F)cc2C1
5. Cc1cncc(-c2cnc3c(c2)CN(c2nn4c(=O)cc(C)nc4cc2C)CC3)c1
6. Cc1cc2nc(C(F)F)cc(=O)n2nc1N1CCc2ncc(-n3cccn3)cc2C1

Result:
1. 0.019
2. 0.078
3. 0.2
4. 0.238
5. 4.55
6. 0.105

Ask: What measured EC50 goes with "Cc1cc(C#N)ncc1-c1cnc2c(c1)CN(c1nn3c(=O)ccnc3cc1C)CC2" ?
Result: 1.52
